test system: ACHN renal; test: NCI tumour cell line growth inhibition, 48 h; in the data active = GI50 below about 0.43 µM; inactive = the rest
Field 'call' accepts active, inactive

MOLECULE | ASSAYED_TARGET | QUALITATIVE_LABEL
Cc1cc(NCCCN(C)C)c2ccc3c(ccc4c(NCCCN(C)C)cc(C)nc43)c2n1 | ACHN renal | active
Cc1cc(C)nc(SC2=C(Nc3ccc(C)c(Cl)c3)C(=O)N(Cc3ccccc3)C2=O)n1 | ACHN renal | inactive
CC1(C)C2CCC13C(=O)C1OC3(C2)C2C(=O)c3ccccc3C(=O)C12 (stereo not given) | ACHN renal | inactive
CC1=C(c2cccc(O)c2)[C@H](c2ccc(OCCN3CC(CF)C3)cc2)Oc2ccc(O)cc21 | ACHN renal | inactive
C=Cc1cncc(C#N)c1CCc1c(C#N)cncc1C=C | ACHN renal | inactive

State the result this test recorded for Nc1ncnc2c1N=C(c1ccc3c(c1)OCO3)CC(c1ccc([N+](=O)[O-])cc1)N2 (stereo not given) .
inactive

Dear colleague, could you share the recorded outcome for CN(C)CCN1C(=O)c2c(c3c4ccccc4n4c3c3c2c2ccccc2n3C2CC(O)C(O)C4(C)O2)C1=O (stereo not given) when you have a moment?
inactive

Entry O=C1C(Nc2ccc(Cl)cc2)=C(I)C(=O)c2ncccc21 : call = ?
active

Please let me know the test result on file for C[C@@]12CCC(=O)c3coc(c31)C(=O)c1cc3c(cc12)C(=O)C=CC3=O .
inactive

Recorded test call requested for Cc1cccc(/C=N/NC(=S)N2CCCC2)n1
inactive
